Reported log10(IC50) values for a set of molecules
# assayed.target: human Nav1.7 channels stably expressed in HEK 293 cells (Homo sapiens, UniProt Q15858)
# Construct: expressed in transfected cells
# Sequence (Q15858 whole entry): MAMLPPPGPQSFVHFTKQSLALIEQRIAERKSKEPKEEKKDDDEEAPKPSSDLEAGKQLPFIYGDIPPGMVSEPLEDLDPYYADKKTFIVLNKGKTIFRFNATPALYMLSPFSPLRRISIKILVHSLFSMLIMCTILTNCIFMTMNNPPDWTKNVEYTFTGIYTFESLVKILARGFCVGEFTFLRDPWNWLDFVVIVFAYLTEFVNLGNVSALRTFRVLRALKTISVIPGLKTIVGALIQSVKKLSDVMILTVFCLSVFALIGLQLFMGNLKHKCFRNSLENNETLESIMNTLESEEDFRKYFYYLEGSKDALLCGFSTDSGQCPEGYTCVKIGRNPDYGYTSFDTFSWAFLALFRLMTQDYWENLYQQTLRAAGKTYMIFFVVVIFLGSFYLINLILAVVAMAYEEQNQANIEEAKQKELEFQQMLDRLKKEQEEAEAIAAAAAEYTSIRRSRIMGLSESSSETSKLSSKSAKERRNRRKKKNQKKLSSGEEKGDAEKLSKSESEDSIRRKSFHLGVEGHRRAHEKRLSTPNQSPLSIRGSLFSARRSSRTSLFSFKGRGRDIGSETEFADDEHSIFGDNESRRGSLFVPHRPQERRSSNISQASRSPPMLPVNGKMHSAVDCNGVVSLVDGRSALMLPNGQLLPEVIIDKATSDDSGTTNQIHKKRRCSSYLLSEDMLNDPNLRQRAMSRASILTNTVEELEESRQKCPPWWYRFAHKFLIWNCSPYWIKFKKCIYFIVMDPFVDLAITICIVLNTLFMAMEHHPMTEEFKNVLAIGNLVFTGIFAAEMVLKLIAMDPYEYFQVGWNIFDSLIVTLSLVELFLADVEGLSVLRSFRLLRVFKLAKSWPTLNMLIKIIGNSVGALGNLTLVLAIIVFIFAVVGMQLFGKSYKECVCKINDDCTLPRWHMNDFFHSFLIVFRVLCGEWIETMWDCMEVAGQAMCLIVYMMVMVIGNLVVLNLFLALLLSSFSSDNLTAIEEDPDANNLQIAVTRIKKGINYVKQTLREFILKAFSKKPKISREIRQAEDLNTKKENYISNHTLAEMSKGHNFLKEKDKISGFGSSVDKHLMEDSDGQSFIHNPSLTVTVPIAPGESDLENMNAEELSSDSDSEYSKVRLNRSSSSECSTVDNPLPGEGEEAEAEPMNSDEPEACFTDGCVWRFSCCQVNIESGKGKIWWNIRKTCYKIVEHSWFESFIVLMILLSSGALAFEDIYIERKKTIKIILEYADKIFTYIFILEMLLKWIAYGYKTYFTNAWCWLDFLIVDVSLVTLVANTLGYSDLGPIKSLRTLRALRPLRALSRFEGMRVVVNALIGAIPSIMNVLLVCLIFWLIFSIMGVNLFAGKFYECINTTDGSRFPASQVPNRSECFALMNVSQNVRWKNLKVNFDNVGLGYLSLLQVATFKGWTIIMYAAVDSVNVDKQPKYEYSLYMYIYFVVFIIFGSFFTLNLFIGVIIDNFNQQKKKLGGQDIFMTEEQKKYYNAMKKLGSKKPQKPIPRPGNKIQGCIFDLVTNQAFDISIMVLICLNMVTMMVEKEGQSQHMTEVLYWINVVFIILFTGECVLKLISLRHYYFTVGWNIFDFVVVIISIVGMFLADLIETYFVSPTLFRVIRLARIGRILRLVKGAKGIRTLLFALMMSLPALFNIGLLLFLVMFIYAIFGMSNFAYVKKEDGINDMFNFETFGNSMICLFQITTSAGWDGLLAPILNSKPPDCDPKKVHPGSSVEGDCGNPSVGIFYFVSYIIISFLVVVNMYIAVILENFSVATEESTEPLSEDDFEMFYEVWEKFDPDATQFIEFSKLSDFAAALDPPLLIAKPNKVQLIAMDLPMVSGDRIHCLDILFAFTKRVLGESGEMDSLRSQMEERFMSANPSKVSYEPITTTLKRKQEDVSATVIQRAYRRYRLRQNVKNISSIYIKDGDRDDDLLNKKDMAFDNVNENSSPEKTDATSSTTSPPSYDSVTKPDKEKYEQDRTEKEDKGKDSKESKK
# assay.remarks: IonWorks Quattro automated patch-clamp, sodium current, inactivated state block
# Format: cell-based
# setup.conditions: read-out: potency for the Nav 1.7 sodium ion channel (as measured by IonWorks)
log10 IC50, nM

Worked cases, answers included:
>>> print(df.to_string())
                                   molecule  measured_value
0  NC/C=C/c1ccccc1Cn1c(=O)oc2cc(S(=O)(=O)Nc3ncns3)c(F)cc21            0.70
1  CC(c1ccccn1)n1c(=O)oc2cc(S(=O)(=O)Nc3ncns3)c(F)cc21 (centres unmarked)            1.81
2  CN1CCc2cccc(Cn3c(=O)oc4cc(S(=O)(=O)Nc5ncns5)ccc43)c2C1            2.56
3  CC(=O)N1CCc2cccc(Cn3c(=O)oc4cc(S(=O)(=O)Nc5ncns5)ccc43)c2C1            2.80
4  O=c1oc2cc(S(=O)(=O)Nc3ncns3)ccc2n1Cc1cccc2c1CCNC2            3.23
5  O=c1oc2cc(S(=O)(=O)Nc3ncns3)ccc2n1C(c1ccccc1)c1ncco1 (centres unmarked)            3.12

# molecule O=c1oc2cc(S(=O)(=O)Nc3ncns3)ccc2n1Cc1cccc2c1CN(CC1CC1)CC2 ; its log10(IC50) = 2.67

# molecule O=c1oc2cc(S(=O)(=O)Nc3ncns3)ccc2n1Cc1ccccc1-c1cccc2c1CCNC2 ; its log10(IC50) = 2.51

###

# assayed.target: human Nav1.7 channels stably expressed in HEK 293 cells (Homo sapiens, UniProt Q15858)
# Construct: expressed in transfected cells
# assay.remarks: PatchXpress 7000 automated patch-clamp, sodium current
# Type: cell-based
# setup.conditions: 22° C., read-out: potency for the Nav 1.7 sodium ion channel (as measured by PatchXpress)
quantity.measured: log10(IC50) (log10 of the value in µM)
log10 IC50, µM

>>> df
                                   compound  measured_value
0  NC/C=C/c1ccccc1Cn1c(=O)oc2cc(S(=O)(=O)Nc3ncns3)ccc21 [Compound 3-3]           -0.47
1  O=c1oc2cc(S(=O)(=O)Nc3ncns3)c(F)cc2n1Cc1cccc2c1CC(N1CCCC1C(F)(F)F)CC2 (racemic) [Compound 23-11]           -0.94
2  O=c1oc2cc(S(=O)(=O)Nc3ncns3)ccc2n1Cc1ccccc1Cl [Compound 1-12]           -0.39

# compound C=CCC(c1ccccc1)n1c(=O)oc2cc(S(=O)(=O)Nc3ncns3)ccc21 (stereo not drawn) [Compound 4-13] ; its log10(IC50) = -1.06

# compound O=c1oc2cc(S(=O)(=O)Nc3ncns3)ccc2n1Cc1ccccc1C1=CCCNC1 [Compound 3-6] ; its log10(IC50) = -0.48

# compound O=c1oc2cc(S(=O)(=O)Nc3ncns3)ccc2n1Cc1ccc(Cl)cc1 [Compound 1-13] ; its log10(IC50) = -0.01

# compound Cc1cccc2c1CCCC2n1c(=O)oc2cc(S(=O)(=O)Nc3ncns3)c(F)cc21 (stereo not drawn) [Compound 39-5] ; its log10(IC50) = -0.58

# compound NC1CCc2c(cccc2Cn2c(=O)oc3cc(S(=O)(=O)Nc4ncns4)ccc32)C1 (racemic) [Compound 23-3] ; its log10(IC50) = -0.47

# compound NC1Cc2cccc(Cn3c(=O)oc4cc(S(=O)(=O)Nc5ncns5)ccc43)c2C1 (racemic) [Compound 23-9] ; its log10(IC50) = -0.74

# compound O=c1oc2cc(S(=O)(=O)Nc3nccs3)c(F)cc2n1C1CC2(CCC2)Oc2ccc(Br)cc21 (stereo not drawn) [Compound 43-10] ; its log10(IC50) = -1.24

# compound C[C@H](c1cccc(-c2ccc(O)nc2)c1)n1c(=O)oc2cc(S(=O)(=O)Nc3ncns3)c(F)cc21 [Compound 28-4] ; its log10(IC50) = -0.97

# compound Cl.O=c1oc2cc(S(=O)(=O)Nc3ncns3)c(F)cc2n1Cc1cccc2c1CNCC2F (stereo not drawn) [Compound 24-9, hydrochloride] ; its log10(IC50) = -0.74

# compound O=c1oc2cc(S(=O)(=O)Nc3ncns3)c(F)cc2n1C1CC2(CCN(Cc3ccccc3)CC2)Oc2ccccc21 (stereo not drawn) [Compound 39-11] ; its log10(IC50) = -0.78

# compound O=c1oc2cc(S(=O)(=O)Nc3ncns3)ccc2n1Cc1ccccc1-c1cccc2c1CCNC2 [Compound 3-8] ; its log10(IC50) = -0.56

# compound C[C@H](c1cccc(C#CC2(N)CCCCC2)c1)n1c(=O)oc2cc(S(=O)(=O)Nc3ncns3)c(F)cc21 [Compound 30-4] ; its log10(IC50) = -2.00

###

# assayed.target: human Nav1.7 channels stably expressed in HEK 293 cells (Homo sapiens, UniProt Q15858)
# Construct: expressed in transfected cells
# assay.remarks: PatchXpress 7000 automated patch-clamp, sodium current
# Assay type: cell-based
# setup.conditions: 22° C., read-out: potency for the Nav 1.7 sodium ion channel (as measured by PatchXpress)
Reported log10 of IC50 values for a set of compounds
log10 IC50, µM

Worked cases, answers included:
>>> print(df.to_string())
                                   compound                            assayed_target  measured_value
0  C[C@H](c1ccccc1C#C[C@@H]1CCCN1)n1c(=O)oc2cc(S(=O)(=O)Nc3ncns3)c(F)cc21  human Nav1.7 channels stably expressed in HEK 293 cells (Homo sapiens, UniProt Q15858)           -1.54
1  O=c1oc2cc(S(=O)(=O)Nc3ncns3)c(F)cc2n1Cc1ccccc1  human Nav1.7 channels stably expressed in HEK 293 cells (Homo sapiens, UniProt Q15858)           -0.26
2  COC(=O)[C@H](c1ccccc1)n1c(=O)oc2cc(S(=O)(=O)Nc3nccs3)ccc21  human Nav1.7 channels stably expressed in HEK 293 cells (Homo sapiens, UniProt Q15858)           -0.26

# compound O=c1oc2cc(S(=O)(=O)Nc3ncns3)c(F)cc2n1Cc1cccc2c1CC(N1CCS(=O)(=O)CC1)CC2 (single isomer, unassigned) ; its log10 of IC50 = -0.69

# compound C[C@H](O)C#Cc1ccccc1[C@@H](C)n1c(=O)oc2cc(S(=O)(=O)Nc3ncns3)c(F)cc21 ; its log10 of IC50 = -1.43

# compound Cn1cc2cccc(Cn3c(=O)oc4cc(S(=O)(=O)Nc5ncns5)c(F)cc43)c2n1 ; its log10 of IC50 = -0.31

# compound CC(c1cccc2c1CC(N1CC(F)(F)C1)CC2)n1c(=O)oc2cc(S(=O)(=O)Nc3ncns3)c(F)cc21 (racemic) ; its log10 of IC50 = -0.96

# compound COC(=O)NC1CCc2cccc(Cn3c(=O)oc4cc(S(=O)(=O)Nc5ncns5)c(F)cc43)c2C1 (single isomer, unassigned) ; its log10 of IC50 = -0.91

###

# assayed.target: human Nav1.7 channels stably expressed in HEK 293 cells (Homo sapiens, UniProt Q15858)
# Construct: expressed in transfected cells
# assay.remarks: PatchXpress 7000 automated patch-clamp, sodium current
# Assay type: cell-based
# setup.conditions: 22° C., read-out: potency for the Nav 1.7 sodium ion channel (as measured by PatchXpress)
pIC50: −log10 of the molar value.
Assign fulfilled to entries whose pIC50 meets or exceeds 7; assign not fulfilled to the rest.

                                   compound  assigned_label
0  C[C@H](c1ccccc1CN1CCCC1)n1c(=O)oc2cc(S(=O)(=O)Nc3ncns3)c(F)cc21       fulfilled

Now consider the entry below.
**Query** Entry C[C@H](c1ccccc1C#CCN)n1c(=O)oc2cc(S(=O)(=O)Nc3ncns3)c(F)cc21 : is its pIC50 no less than 7?
**Result** fulfilled

###

# assayed.target: human Nav1.7 channels stably expressed in HEK 293 cells (Homo sapiens)
# Construct: expressed in transfected cells
# assay.remarks: PatchXpress 7000 automated patch-clamp, sodium current
# Format: cell-based
# setup.conditions: 22° C., read-out: potency for the Nav 1.7 sodium ion channel (as measured by PatchXpress)
# Procedure: To measure state and use-dependent sodium channel inhibition, test compounds were further characterized in an automated PatchXpress® assay (Molecular Devices). Two voltage-clamp protocols were used. […] For all electrophysiology experiments, offline analysis was used to correct for current rundown and to determine percent inhibition as a function of drug concentration. IC50 values were determined by fitting to the Hill equation.
quantity.measured: IC50 (nM)
Enter your answer as a number in nM; do not include the unit.

Worked cases, answers included:
In [3]: df
Out[3]:
                                 mol_smiles  quantity_measured  measured_value
0  C[C@H](c1ccccc1C#CCN)n1c(=O)oc2cc(S(=O)(=O)Nc3ncns3)c(Cl)cc21               IC50              40
1  CCc1cc2c(cc1S(=O)(=O)Nc1ncns1)oc(=O)n2[C@H](C)c1ccccc1               IC50              94
2  C[C@H](c1ccccc1I)n1c(=O)oc2cc(S(=O)(=O)Nc3ncns3)c(F)cc21               IC50              69

# compound C[C@H](c1ccccc1)n1c(=O)oc2cc(S(=O)(=O)Nc3ncns3)ccc21 ; its IC50 = 74

All figures here come from patent US9273040B2.
